The following binders are shown together with reported Kd values.
Target: T1, recombinant human SOST (rhSOST) (human, UniProt Q9BQB4 24-213)
T1 construct: Treated as one molecule; also called recombinant human SOST protein; human sclerostin
T1 sequence: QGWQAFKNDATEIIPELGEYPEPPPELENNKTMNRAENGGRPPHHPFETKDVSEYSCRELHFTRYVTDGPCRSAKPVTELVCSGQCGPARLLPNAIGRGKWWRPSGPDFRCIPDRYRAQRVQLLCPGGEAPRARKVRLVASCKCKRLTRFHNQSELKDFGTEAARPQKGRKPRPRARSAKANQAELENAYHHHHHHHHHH
Test: SPR Biacore T200, IgG captured via anti-human Fc, rhSOST analyte, 37 C
Answer in nM, number only, no unit symbol.

# example entries with known answers
[[record]]
binder = "DM1 (antibody, V domains shown, also called mH10/mL4) VH: EVQLLESGGGLVQPGGSLRLSCAASGHTFSDYWMQWVRQAPGKGLEWVGAIYPGDGDTRYNQKFKDRFTISRDNSKNTLYLQMNSLRAEDTAVYYCARSMDYWGQGTLVTVSS VL: DIVMTQSPDSLAVSLGERATINCRASKTVDSYGNSFMHWFQQKPGQPPKLLIHHSSNLESGVPDRFSGSGSGTDFTLTISSLQAEDVAVYYCLQTIEHPYTFGQGTKLEIK"
reported_measurement = 0.566

[[record]]
binder = "DP1 (antibody, human IgG2, kappa, V domains shown, also called pH1/pL1) VH: EVQLVESGGGLVQPGGSLRLSCAASGFTFSIYAMSWVRQAPGKGLEWVALISGGDTYTYYADSVKGRFTISRDNAKNSLYLQMNSLRAEDTAVYYCARHGYDDFDYWGQGTLVTVSS VL: DVVMTQSPLSLPVTLGQPASISCRSSQSLLDNDGETYLNWFQQRPGQSPRRLIYQVSKLDSGVPDRFSGSGSGTDFTLKISRVEAEDVGVYYCWQGTHFPHTFGGGTKVEIKR"
reported_measurement = 3.7


--- query ---
State, in one line, measured Kd of DM4 (antibody, human IgG2, kappa, V domains shown, mAb names lost in this copy; also called mH10/mL13) VH: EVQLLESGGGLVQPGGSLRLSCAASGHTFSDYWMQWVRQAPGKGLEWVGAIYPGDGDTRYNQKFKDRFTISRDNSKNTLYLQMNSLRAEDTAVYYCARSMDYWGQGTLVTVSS VL: DIVMTQSPDSLAVSLGERATINCRASKTVDSYGNSFMHWFQQKPGQPPKLLIHHSSNLESGVPDRFSGSGSGTDFTLTISSLQAEDVAVYYCLQTIEFPYTFGQGTKLEIKR
0.13
